study.system: T1, TPP-2305 (hTNFRSF12Aaa28-80) (Human, UniProt Q9NP84 28-80)
T1 construct: monomeric extracellular domain, bought; also called purified recombinant human TWEAKR protein; soluble monomeric TWEAKR
method: SPR (Biacore T100), IgG captured, TPP-2305 injected, 1:1 model
attribute.measured: koff (s⁻¹)

* TPP-2093 (antibody, human IgG1, kappa, V domains shown, Human IgG1) VH: EVQLLESGGGLVQPGGSLRLSCAASGFTFSPYPMMWVRQAPGKGLEWVSYISPSGGSTHYADSVKGRFTISRDNSKNTLYLQMNSLRAEDTAVYYCARGGDTYFDYFDYWGQGTLVTVSS VL: DIQMTQSPSSLSASVGDRVTITCRASQSISSYLNWYQQKPGKAPKLLIYQASSLQSGVPSRFSGSGSGTDFTLTISSLQPEDFATYYCQQSYTSPFITFGQGTKVEIKR | 0.09
* TPP-883 (antibody, human IgG1, kappa, V domains shown, Human IgG1; parent antibody from the phage library) VH: EVQLLESGGGLVQPGGSLRLSCAASGFTFSPYPMMWVRQAPGKGLEWVSYISPSGGKTHYADSVKGRFTISRDNSKNTLYLQMNSLRAEDTAVYYCARGGDGYFDYFDYWGQGTLVTVSS VL: DIQMTQSPATLSASVGDRVTITCRASQSISSYLNWYQQKPGKAPKLLIYAASSLQSGVPSRFSGSGSGTDFTLTISSLQPEDFATYYCQQSYSSPGITFGPGTKVEIKR | 0.91
* TPP-2149 (antibody, human IgG1, kappa, V domains shown, Human IgG1) VH: EVQLLESGGGLVQPGGSLRLSCAASGFTFSPYPMIWVRQAPGKGLEWVSYISPSGGKTHYADSVKGRFTISRDNSKNTLYLQMNSLRAEDTAVYYCARGGDTYFDYFDYWGQGTLVTVSS VL: DIQMTQSPATLSASVGDRVTITCRASQSISGYLNWYQQKPGKAPKLLIYQASSLQSGVPSRFSGSGSGTDFTLTISSLQPEDFATYYCQQSYTSPFITFGPGTKVEIKR | 0.1
* P4A8(TPP-1324) (antibody, human IgG1, kappa, V domains shown, Human IgG1; variable domains from WO2009/140177 with constant region added) VH: QVQLVQSGAEVKKPGASVKVSCKGSGYTFTDYGMHWVRQAPGQGLEWMGVISTYNGYTNYNQKFKGRVTMTVDKSTSTAYMELRSLRSDDTAVYYCARAYYGNLYYAMDYWGQGTLVTVSS VL: DIVLTQSPASLAVSLGQRATISCRASKSVSTSSYSYMHWYQQKPGQPPKLLIKYASNLESGVPARFSGSGSGTDFSLNIHPMEEDDTAMYFCQHSRELPFTFGGGTKLEIKR | 0.0027
